Target: T1, cynoCSF1R ECD-Fc (cynomolgus)
T1 construct: also called cynomolgus CSF1R ECD
T1 sequence (chain, as listed by the source): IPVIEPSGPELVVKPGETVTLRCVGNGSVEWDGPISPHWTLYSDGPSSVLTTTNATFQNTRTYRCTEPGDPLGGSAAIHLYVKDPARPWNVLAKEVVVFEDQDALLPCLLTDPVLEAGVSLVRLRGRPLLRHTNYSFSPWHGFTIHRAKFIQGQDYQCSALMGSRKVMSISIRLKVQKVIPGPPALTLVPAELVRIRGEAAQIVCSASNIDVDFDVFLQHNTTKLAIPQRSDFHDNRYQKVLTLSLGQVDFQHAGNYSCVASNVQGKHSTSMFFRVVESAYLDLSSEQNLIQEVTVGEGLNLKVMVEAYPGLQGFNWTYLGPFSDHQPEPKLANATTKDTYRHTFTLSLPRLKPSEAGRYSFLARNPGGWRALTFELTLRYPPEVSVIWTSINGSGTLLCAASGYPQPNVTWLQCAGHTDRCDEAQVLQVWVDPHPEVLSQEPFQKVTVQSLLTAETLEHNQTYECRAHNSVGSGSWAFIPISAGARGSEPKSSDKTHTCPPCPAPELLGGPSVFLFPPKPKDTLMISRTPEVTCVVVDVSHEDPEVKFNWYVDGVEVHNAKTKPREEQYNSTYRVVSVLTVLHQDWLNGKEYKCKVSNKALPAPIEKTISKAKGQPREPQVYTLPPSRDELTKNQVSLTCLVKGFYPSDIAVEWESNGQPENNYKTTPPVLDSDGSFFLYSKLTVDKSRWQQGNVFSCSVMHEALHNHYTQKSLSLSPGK
Assay: competition ELISA, blocking of human CSF1 binding to cynoCSF1R ECD-Fc
Some binders, each annotated with its measured IC50.
API: value field is a number in µg/mL; no unit string.

{"binder": "h0302-L2H2 (antibody, human IgG4 S228P, kappa, V domains shown, also called Ab12; huAb 0302-L2H2) VH: QVQLVQSGAEVKKPGSSVKVSCKASGYTFSDFNIHWVRQAPGQGLEWIGYINPYTDVTVYNEKFKGRATLTSDKSTSTAYMELSSLRSEDTAVYYCASYFDGTFDYALDYWGQGTLVTVSS VL: EIVVTQSPATLSLSPGERATLSCRASESVDNYGLSFMNWFQQKPGQAPRLLIYTASNLESGIPARFSGSGSRTDFTLTISSLEPEDFAVYYCQQSKELPWTFGQGTKVEIKR", "IC50 (µg/mL)": 0.838}
{"binder": "h0302-L0H1 (antibody, human IgG4 S228P, kappa, V domains shown, also called Ab7; huAb 0302-L0H1) VH: QVQLVQSGAEVKKPGSSVKVSCKASGYTFSDFNIHWVRQAPGQGLEWMGYINPYTDVTVYNEKFKGRVTITSDKSTSTAYMELSSLRSEDTAVYYCASYFDGTFDYALDYWGQGTLVTVSS VL: EIVLTQSPATLSLSPGERATLSCRASESVDNYGLSFMNWYQQKPGQAPRLLIYTASNLESGIPARFSGSGSGTDFTLTISSLEPEDFAVYYCQQSKELPWTFGQGTKVEIKR", "IC50 (µg/mL)": 0.0155}

GET /value?item= h0302-L1H1 (antibody, human IgG4 S228P, kappa, V domains shown, also called Ab8; huAb 0302-L1H1) VH: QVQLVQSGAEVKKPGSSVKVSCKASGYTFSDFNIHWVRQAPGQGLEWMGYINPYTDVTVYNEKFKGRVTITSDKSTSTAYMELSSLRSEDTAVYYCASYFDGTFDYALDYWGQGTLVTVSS VL: EIVLTQSPATLSLSPGERATLSCRASESVDNYGLSFMNWYQQKPGQAPRLLIYTASNLESGIPARFSGSGSRTDFTLTISSLEPEDFAVYYCQQSKELPWTFGQGTKVEIKR &field=IC50 returns 0.0605

GET /value?item= h0302-L1H2 (antibody, human IgG4 S228P, kappa, V domains shown, also called Ab11; huAb 0302-L1H2) VH: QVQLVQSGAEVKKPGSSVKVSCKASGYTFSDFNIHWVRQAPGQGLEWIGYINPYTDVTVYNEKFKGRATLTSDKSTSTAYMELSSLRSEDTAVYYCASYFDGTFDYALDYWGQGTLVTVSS VL: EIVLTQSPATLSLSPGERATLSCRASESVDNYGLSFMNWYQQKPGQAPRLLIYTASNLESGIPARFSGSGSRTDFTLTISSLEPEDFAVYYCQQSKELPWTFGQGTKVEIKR &field=IC50 returns 1.08
